The origin of these recorded values is patent US20060154923A1.

# System: Ctenocephatides felis, adult cat fleas
# test.details: Contact activity against adult cat fleas, coated glass vial assay
# Assay type: in vivo
# assay.conditions: Conc. 2 ug/cm2, 24 h
# Method: Evaluation of the Efficacy of Test Compounds Against Adult Cat Fleas The contact activity of a test compound against Ctenocephatides felis, adult cat fleas, is evaluated in a coated, glass vial assay. In this evaluation, a solution of test compound in acetone is allowed to dry on the interior surface of a 20 mL vial. Ten unfed adult cat fleas are added to the treated vial and mortality is assessed periodically for up to 48 h. All treatments are replicated 2 times. The data are averaged.
parameter.measured: % Mortality 24 h (%)
# unit: % | format: bare number

For CC1(c2nn(-c3c(Cl)cc(C(F)(F)F)cc3Cl)c(Cl)c2C#N)CC1(Cl)Cl (stereo not shown) [Example 4] , write its % Mortality 24 h.
100

For CC1(c2nn(-c3c(Cl)cc(C(F)(F)F)cc3Cl)cc2C#N)CC1(Br)Br (stereo not shown) [Example 14] , write its % Mortality 24 h.
100

For CC1(c2nn(-c3c(Cl)cc(C(F)(F)F)cc3Cl)c(N)c2C#N)CC1(Cl)Cl (stereo not shown) [Example 19] , write its % Mortality 24 h.
10

For CC1(c2nn(-c3c(Cl)cc(C(F)(F)F)cc3Cl)c(Cl)c2C#N)CC1(Br)Br (stereo not shown) [Example 20] , write its % Mortality 24 h.
100
